Tested on: Yap1 mRNA
Experiment: Dose-dependent inhibition of human Yap1 in A-431 cells (Example 6, 5,000 cells per well, RTS4814)
Format: cell-based
Conditions: Table 55; 1333 nM, free uptake, A-431 cells 5,000 cells per well, 48 hours, RTS4814
Experimental: Modified oligonucleotides described in the studies above were tested at various doses in A-431 cells. […] After approximately 48 hours, Yap1 mRNA levels were measured as previously described using the Human Yap1 primer-probe set RTS4814. Yap1 mRNA levels were normalized to total RNA content, as measured by RIBOGREEN®. […] IC50s were calculated using a linear regression on a log/linear plot of the data in excel.
Strand notation (5' to 3'): a small letter for the sugar, then the base; units joined by * are phosphorothioate-linked, units joined directly phosphodiester-linked; [ ] holds rarer units or linkages, { } end groups; capitals alone tell only the bases. k = constrained ethyl (cEt); [5mC] = 5-methylcytosine; d = 2'-deoxy (DNA)
experimental-readout: Yap1 mRNA, % UTC (% UTC)
Write the number in % UTC without appending the unit.

{"columns": ["substance", "measured-target", "Yap1 mRNA, % UTC, % UTC"],
 "data": [
  ["716479 (antisense kG*kA*kA*d[5mC]*dA*dA*dT*d[5mC]*dT*dT*dG*dA*dA*kG*kG*k[5mC]) [compound 716479]", "Yap1 mRNA", 55],
  ["716419 (antisense kT*kT*kT*d[5mC]*d[5mC]*dG*dG*dT*dG*d[5mC]*dA*dT*dG*kT*kG*kT) [compound 716419]", "Yap1 mRNA", 49]
]}

Qu. Which measured Yap1 mRNA, % UTC value corresponds to 716500 (antisense kA*kA*k[5mC]*dT*dT*d[5mC]*dT*dT*dA*d[5mC]*dT*dT*d[5mC]*k[5mC]*kA*kA) [compound 716500] ?
Ans. 79

====

system: Yap1 mRNA; experiment: Dose-dependent inhibition of human Yap1 in A-431 cells (Example 8, 10,000 cells per well, RTS4814); assay type: cell-based; conditions: 500.0 nM; A-431 cells, 10,000 cells per well, free uptake, approximately 48 hours, RTS4814
Strand notation (5' to 3'): a small letter for the sugar, then the base; units joined by * are phosphorothioate-linked, units joined directly phosphodiester-linked; [ ] holds rarer units or linkages, { } end groups; capitals alone tell only the bases. k = constrained ethyl (cEt); [5mC] = 5-methylcytosine; d = 2'-deoxy (DNA)
Given measured Yap1 mRNA, % UTC, output YES if it is greater than or equal to 7 % UTC and NO if not.

Past entries and their recorded results:
{"columns": ["substance", "measured-target", "group"],
 "data": [
  ["1076295 (kG*kT*kA*dT*dA*dT*dT*dA*dG*dT*dG*d[5mC]*d[5mC]*k[5mC]*k[5mC]*k[5mC]; antisense) [compound 1076295]", "Yap1 mRNA", "NO"],
  ["1075686 (kG*kT*kA*dA*dT*dT*dA*d[5mC]*dA*dG*dT*dG*dT*k[5mC]*kT*k[5mC]; antisense) [compound 1075686]", "Yap1 mRNA", "YES"],
  ["1074852 (kA*kA*kT*dT*dG*dT*dT*dA*dT*dG*dA*dT*dA*kG*kG*k[5mC]; antisense) [compound 1074852]", "Yap1 mRNA", "NO"],
  ["1074576 (DNA kA*kT*kG*d[5mC]*dA*d[5mC]*dA*dT*dT*dA*dT*dG*dA*kA*k[5mC]*k[5mC]) [compound 1074576]", "Yap1 mRNA", "YES"]
]}

Now, please, on to the next substance.
Qu. Has 1074756 (kG*k[5mC]*kA*d[5mC]*dT*dT*dT*dT*dA*d[5mC]*dA*dT*dT*kA*kG*kG) [compound 1074756] a recorded Yap1 mRNA, % UTC greater than or equal to 7 % UTC?
Ans. NO

Reference source: patent US11214803B2
